# test: Phase 1b trial NCT04179474, plasma ubrogepant pharmacokinetics, erenumab arm (Part 1)
# Format: in vivo, human
# condition.notes: human, plasma, other: extravascular administration; erenumab arm; ubrogepant 100 mg alone, day 1; n = 20; read-out: AUC0-∞, mean
quantity.name: AUC(0-inf) (ng·h/mL)
Express your answer in ng·h/mL, writing the number without its unit.

## Task Supply recorded AUC(0-inf) for C[C@@H]1[C@H](c2ccccc2)C[C@H](NC(=O)c2cnc3c(c2)C[C@@]2(C3)C(=O)Nc3ncccc32)C(=O)N1CC(F)(F)F here.
## Result 1880

---

# test: Phase 1b trial NCT04179474, plasma ubrogepant pharmacokinetics, erenumab arm (Part 1)
# Type: in vivo, human
# condition.notes: human, plasma, other: extravascular administration; erenumab arm; ubrogepant 100 mg alone, day 1; n = 20; read-out: Cmax, mean
quantity.name: Cmax

## Task Supply recorded Cmax for C[C@@H]1[C@H](c2ccccc2)C[C@H](NC(=O)c2cnc3c(c2)C[C@@]2(C3)C(=O)Nc3ncccc32)C(=O)N1CC(F)(F)F here.
## Result 459 ng/mL
